- assay-method-text: yeast display, Sf9 membrane polyspecificity reagent, FACS + sequencing; frameworks hold sequencing errors
property-name: polyreactivity (PSR sort gate)

QVQLVESGGGLFQAGGSLRLSCAASGSIFTRYAMGWYRQAPGKERELVAAISNRGGRTYYADSVKGRFTISRDNAKNTVYLQMNILKPEDTAVYYCNAATTRRIPQSDNYWGQGTQVTVSS
high polyreactivity
QVQLVESGGGLVQAGGSLRLSCASSGSIFGGYAMGWYRQAPGKERELVAAITSSGGLTYYADSVKGRFTISRDNAKNTVYLQMNCLKPEDTAVYYCAAVTVAGYDYWGQGTQVTVSS
high polyreactivity
QVQLVESGGGLVQAGGSLRLSCAASGSIFYYYAMGWYRQAPGKERELVAAISYGGGSTYYADSVKGRFTISRDNAKNTVYLQMNSLKPEDTAVYYCAVQEVVGWYLYDYWGQGTQVTVSS
high polyreactivity

###

- assay-method-text: yeast display, Sf9 membrane polyspecificity reagent, FACS + sequencing; frameworks hold sequencing errors
property-name: polyreactivity (PSR sort gate)

QVQLVESGGGLVQAGGSLRLICAASGNIFHRYAMGWYRQAPGKERELVAAINGGGGSTYYADSVKGRFTISRDNAKNTVYLQMNSLKPEDTAVYSCAAVVQNGVHIYDYWGQGTQVTVSS
high polyreactivity
QVQLVESGGGLVQAGGSLRLSCAASGSTRRYVMAWYRQAPGKEMELVAAISYSGGSTYYADSVKGRFTISRDNAKNTVYLQMNSLKPEETAVYYCAADGYSGQYGGHMGYWGQGTQVTVSS
high polyreactivity

###

- assay-method-text: yeast display, Sf9 membrane polyspecificity reagent, FACS + sequencing; frameworks hold sequencing errors
property-name: polyreactivity (PSR sort gate)

QVQLVESGGGLVQAGGSLRLSCAASGRTFKYYAMGWYRQAPGKERELVAAISYNGGSTFYADSVKGRFTISRDNAKNTVYLQMNSLKPEDTAVYYCAAGSRYASELDYWGQGTQVTVSS
high polyreactivity
QVQLVESGGGLVQAGGSLRLSCAASGSTFSYNAMGWYRQAPGKERELVATISNTDSTNYADSVKGRFTISRDNAKNTVYLQMNSLKPEVTAVYYCAVVSARIDYEYWGQGTQVTVSS
low polyreactivity
QVQLVESGGGLVQAGGSLRLSCAASGIIFGRYTMGWYRQAPGKERELVAAITSSGITYYADSVKGRFTISRDNAKNTDYLQMNSLKPEDTAVYYCNADYSIPGYYWPYDYWGQGTQVTVSS
low polyreactivity
QVQLVESGGGLVQAGGSLSLSSAASGPIFAYNAMGWYRQAPGKERELVAAISYSGGSTYYADSLKGRFTISRDNAKNTVYIQMNSLKPEDTAVYYCNAVYRYLTYRYDYWGQGTQVTVSS
high polyreactivity
QVQLVESGGGLVQAGGSLRLSCAASGRIFNYYAMGWYRQAPGKARELVAAISGSGGRTYYADSVKGRFTISRDNAKNTVYLQMNSLKPEDTAVYYCAADGVDGYDYWGQGTQVTVSS
high polyreactivity

INPUT: // returns reported polyreactivity (PSR sort gate) for input "QVHLVESGGGLVQAGGSLRLSCAASGSNFDINAMGWYRQAPGKERELVAVITDSGSTYYADSVKGRFTISRDNAKNTVYLQMNRLKPEDTAVYYSAADQVVAGLLTPEYDYWGQGTQVTVSS"
OUTPUT: low polyreactivity

INPUT: For the sequence "QVQLVESGGGLVQAGGSLRLSCAASGSTFPRNDMGWYRQAPGNERELVAAISRGGSTNYADSVKGRFTISRDNANNTVYLQMNSMKPEDTAVYYCAAQIFESAYGMDYWGQGTQVTVSS" , what polyreactivity (PSR sort gate) is on record?
OUTPUT: low polyreactivity
